Where do the numbers come from? From patent US20240209076A1.

target of assay: human IL-6 (human, UniProt P05231 30-212)
Sequence (P05231 30-212 limits assumed): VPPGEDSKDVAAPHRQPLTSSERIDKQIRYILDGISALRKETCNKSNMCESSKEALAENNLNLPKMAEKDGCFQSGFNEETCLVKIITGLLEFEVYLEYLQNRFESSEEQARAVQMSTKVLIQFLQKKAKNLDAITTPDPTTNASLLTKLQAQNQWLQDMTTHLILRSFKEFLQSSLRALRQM
method notes: SPR (Biacore), supernatant antibody on Protein A chip, IL-6 flowed, 37 C
Each record here notes measured koff.
The answer is to be given in s⁻¹; state only the numeric part.

# koff lookup, item anti-IL-6 antibody, heavy chain I51A, G66D / light chain M32L, M50D, N52S, M88Q (antibody, human IgG1, V domains shown, Human IgG1) VH: EVQLVESGGGLVQPGGSLRLSCAASGFTFSPFAMSWVRQAPGKGLEWVAKASPGGSWTYYSDTVTDRFTFSLDTSKSTAYLQMNSLRAEDTAVYYCARQLWGYYALDIWGQGTLVTVSS VL: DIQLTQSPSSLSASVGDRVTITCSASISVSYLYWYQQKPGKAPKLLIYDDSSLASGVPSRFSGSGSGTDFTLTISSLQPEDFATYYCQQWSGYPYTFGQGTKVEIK 0.000899

# koff lookup, item anti-IL-6 antibody, heavy chain I51W, G66D / light chain M32L, M50D, N52S, M88Q (antibody, human IgG1, V domains shown, Human IgG1) VH: EVQLVESGGGLVQPGGSLRLSCAASGFTFSPFAMSWVRQAPGKGLEWVAKWSPGGSWTYYSDTVTDRFTFSLDTSKSTAYLQMNSLRAEDTAVYYCARQLWGYYALDIWGQGTLVTVSS VL: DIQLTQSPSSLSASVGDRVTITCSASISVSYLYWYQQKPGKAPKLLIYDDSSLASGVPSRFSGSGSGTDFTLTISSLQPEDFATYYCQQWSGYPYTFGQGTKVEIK 0.00383

# koff lookup, item anti-IL-6 antibody, heavy chain I51K, G66D / light chain M32L, M50D, N52S, M88Q (antibody, human IgG1, V domains shown, Human IgG1) VH: EVQLVESGGGLVQPGGSLRLSCAASGFTFSPFAMSWVRQAPGKGLEWVAKKSPGGSWTYYSDTVTDRFTFSLDTSKSTAYLQMNSLRAEDTAVYYCARQLWGYYALDIWGQGTLVTVSS VL: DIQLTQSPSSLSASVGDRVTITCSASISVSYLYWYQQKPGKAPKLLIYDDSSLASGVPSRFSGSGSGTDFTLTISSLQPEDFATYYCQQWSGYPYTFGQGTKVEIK 0.000601
